Each recorded value in this set is attributed to patent US11820766B2.

- target: human MGL from HeLa cells (Homo sapiens)
- Construct: combining endogenously expressed MGL from HeLa cells with test compounds; endogenous in cells; host or cells: HeLa cells / cell homogenates
- assay-name: In vitro MGL activity assay: [glycerol-1,3-3H]-oleyl glycerol cleavage by MGL from HeLa cells
- Type: biochemical
- measurement-context: 300 nM [Glycerol-1,3-3H]-oleyl glycerol, one hour incubation
- Text: MGL is the predominant hydrolase in HeLa cells/cell homogenates.
experimental-endpoint: IC50 (nM)
Write it as a number; the unit nM goes unstated.

These solved cases illustrate the format of a correct answer.
1) Cn1nc2c(c1-c1ccccc1)CCN(C(=O)c1cccc3sccc13)C2 [Example 38]    68
2) Cn1nc2c(c1-c1ccccc1)CCN(C(=O)c1cccc3c1NC(=O)CO3)C2 [Example 26]    2460
3) C[C@H]1c2nn(C)c(-c3cc(F)cc(Cl)c3)c2CCN1C(=O)c1ccc2nccnc2c1 [Example 181]    6.37
4) COc1ccc(C(=O)N2CCc3c(nn(C)c3-c3cc(F)c(F)c(F)c3)[C@@H]2C)c(C)n1 [Example 306]    189
5) C[C@H]1c2nn(C)c(-c3cc(F)c(F)c(F)c3)c2CCN1C(=O)c1cnn(C)c1C(F)F [Example 330]    102

So for C[C@H]1c2nn(C)c(-c3cc(F)c(F)c(F)c3)c2CCN1C(=O)c1cc(F)cc(-n2cncn2)c1 [Example 277] , the logged IC50 turned out to be 22

So for CCc1nc(C(=O)N2CCc3c(nn(C)c3-c3cc(F)c(F)c(F)c3)[C@@H]2C)nn1-c1ccccc1 [Example 202] , the logged IC50 turned out to be 7.39

----------
- target: human MGL from HeLa cells (Homo sapiens, UniProt Q99685)
- Construct: combining endogenously expressed MGL from HeLa cells with test compounds; endogenous in cells; host or cells: HeLa cells / cell homogenates
- Sequence (Q99685 1-303): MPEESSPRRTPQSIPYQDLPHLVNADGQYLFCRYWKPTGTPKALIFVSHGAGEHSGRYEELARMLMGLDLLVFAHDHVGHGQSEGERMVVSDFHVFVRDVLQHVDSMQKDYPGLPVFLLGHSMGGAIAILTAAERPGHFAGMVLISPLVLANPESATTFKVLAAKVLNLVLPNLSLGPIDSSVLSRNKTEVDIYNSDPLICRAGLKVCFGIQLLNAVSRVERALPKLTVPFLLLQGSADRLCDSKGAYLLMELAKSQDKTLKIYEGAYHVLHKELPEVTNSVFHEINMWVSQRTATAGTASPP
- assay-name: In vitro MGL activity assay: [glycerol-1,3-3H]-oleyl glycerol cleavage by MGL from HeLa cells
- Type: biochemical
- measurement-context: 300 nM [Glycerol-1,3-3H]-oleyl glycerol, one hour incubation
pIC50: −log10 of the molar value.
Short version: pIC50 at least 8 is Condition met, less is Condition not met.

Worked examples follow.
1. COc1cc(C(=O)N2CCc3c(nn(C)c3-c3cc(F)c(F)c(F)c3)[C@@H]2C)c2ccccc2n1 [Example 240]    Condition met
2. Cn1nc2c(c1-c1ccccc1)CCN(C(=O)c1ccnc3c(F)cccc13)C2 [Example 96]    Condition not met
3. C[C@H]1c2nn(C)c(-c3cc(Cl)cc(Cl)c3)c2CCN1C(=O)c1nn(C)c2ncccc12 [Example 173]    Condition not met
4. C[C@H]1c2nn(C)c(-c3cccc(Cl)c3)c2CCN1C(=O)c1ncn(-c2ccccc2)n1 [Example 117]    Condition not met
5. COc1cc(C(=O)N2CCc3c(nn(C)c3-c3ccccc3)C2)cc(C(F)(F)F)c1 [Example 6]    Condition not met

We next turn to a different compound, shown below.
hey, is pIC50 for this one >= 8? C[C@H]1c2nn(C)c(-c3cc(F)c(F)c(F)c3)c2CCN1C(=O)c1nccc2[nH]ccc12 [Example 216] Condition not met
